testSystem: KRAS G13C (Homo sapiens, UniProt P01116+P62937, G13C)
Sequence (P01116 1-169 isoform P01116-2 G13C, one chain of several): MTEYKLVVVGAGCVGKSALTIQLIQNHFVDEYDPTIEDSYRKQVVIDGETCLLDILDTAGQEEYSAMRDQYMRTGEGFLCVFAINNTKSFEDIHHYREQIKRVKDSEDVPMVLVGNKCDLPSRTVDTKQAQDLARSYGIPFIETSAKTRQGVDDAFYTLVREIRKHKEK
assayDetails: Disruption of BRAF RBD interaction with Ras (FRET / MOA assay, with Cyclophilin A)
Assay type: biochemical
recordedConditions: read-out: KRAS G13C FRET data, IC50
pIC50: −log10 of the molar value.
reportedMetric: pIC50

{"compound": "CCn1c(-c2cccnc2[C@H](C)OC)c2c3cc(ccc31)-c1csc(n1)C[C@H](NC(=O)[C@H](C(C)C)N(C)C(=O)[C@@H]1OCC[C@@H]1C)C(=O)N1CCC[C@H](N1)C(=O)OCC(C)(C)C2", "reportedMetric": "pIC50", "value": "5.00 to 6.00"}
{"compound": "CCn1c(-c2cccnc2[C@H](C)OC)c2c3cc(ccc31)-c1csc(n1)C[C@H](NC(=O)[C@H](C(C)C)N(C)C(=O)N1CC3(CCCO3)C1)C(=O)N1CCC[C@H](N1)C(=O)OCC(C)(C)C2 (atropisomer, axis not shown)", "reportedMetric": "pIC50", "value": "6.00 to 7.00"}
{"compound": "CCn1c(-c2cccnc2[C@H](C)OC)c2c3cc(ccc31)-c1csc(n1)C[C@H](NC(=O)[C@H](C(C)C)N(C)C(=O)N1CC(N(C)C)C1)C(=O)N1CCC[C@H](N1)C(=O)OCC(C)(C)C2 (racemic)", "reportedMetric": "pIC50", "value": "6.00 to 7.00"}
{"compound": "CCn1c(-c2cccnc2[C@H](C)OC)c2c3cc(ccc31)-c1cc(O)cc(c1)C[C@H](NC(=O)[C@H](C(C)C)N(C)C(=O)[C@H]1CCCN[C@@H]1C)C(=O)N1CCC[C@H](N1)C(=O)OCC(C)(C)C2", "reportedMetric": "pIC50", "value": "7.00 to 8.00"}
{"compound": "CCn1c(-c2cnccc2COC)c2c3cc(ccc31)-c1cc(O)cc(c1)C[C@H](NC(=O)[C@H](C(C)C)N(C)C(=O)[C@@H]1CCOC1)C(=O)N1CCC[C@H](N1)C(=O)OCC(C)(C)C2", "reportedMetric": "pIC50", "value": "6.00 to 7.00"}

Data request: Indicate its recorded pIC50; the compound in question is CCn1c(-c2cccnc2[C@H](C)OC)c2c3cc(ccc31)-c1csc(n1)C[C@H](NC(=O)[C@H](C(C)C)N(C)C(=O)N1CCN(C)C3(CC3)C1)C(=O)N1CCC[C@H](N1)C(=O)OCC(C)(C)C2
Data returned: 6.00 to 7.00

* * *

testSystem: KRAS G12C (Homo sapiens, UniProt P01116+P62937, G12C)
Sequence (P01116 1-169 isoform P01116-2 G12C): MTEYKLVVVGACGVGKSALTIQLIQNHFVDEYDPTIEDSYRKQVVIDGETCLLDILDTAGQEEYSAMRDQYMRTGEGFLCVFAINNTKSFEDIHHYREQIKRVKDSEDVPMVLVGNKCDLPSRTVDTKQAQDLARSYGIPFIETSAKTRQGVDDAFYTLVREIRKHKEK
Sequence (P62937 whole entry): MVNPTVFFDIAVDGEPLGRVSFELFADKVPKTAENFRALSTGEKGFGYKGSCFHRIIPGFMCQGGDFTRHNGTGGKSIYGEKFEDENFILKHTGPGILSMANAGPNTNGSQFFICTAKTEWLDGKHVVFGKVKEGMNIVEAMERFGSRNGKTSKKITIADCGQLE
assayDetails: Disruption of BRAF RBD interaction with Ras (FRET / MOA assay, with Cyclophilin A)
Format: biochemical
recordedConditions: KRAS G12C; read-out: KRAS G12C FRET data IC50
pIC50: −log10 of the molar value.
Listing of recorded pIC50 by entry.

Known results for compounds:
{"smilesEntry": "C=CC(=O)N(C)CCN(C)C(=O)N(C)[C@H](C(=O)N[C@H]1Cc2nc(cs2)-c2ccc3c(c2)c(c(-c2cccnc2[C@H](C)OCC)n3CC)CC(C)(C)COC(=O)[C@@H]2CCCN(N2)C1=O)C(C)C", "pIC50": "7.00 to 8.00"}
{"smilesEntry": "C=CC(=O)N1CCN(C(=O)N(C)[C@H](C(=O)N[C@H]2Cc3cc(O)cc(c3)-c3ccc4c(c3)c(c(-c3ccccc3CCOC)n4CC)CC(C)(C)COC(=O)[C@@H]3CCCN(N3)C2=O)C(C)C)CC1", "pIC50": "6.00 to 7.00"}
{"smilesEntry": "C=CC(=O)N1CC[C@H](C(=O)N(C)[C@H](C(=O)N[C@H]2Cc3cc(O)cc(c3)-c3ccc4c(c3)c(c(-c3cncnc3)n4CC)CC(C)(C)COC(=O)[C@@H]3CCCN(N3)C2=O)C(C)C)C1", "pIC50": "6.00 to 7.00"}

Data request: # return pIC50 of CO[C@@H](COC1CN(C(=O)C#CC(C)(C)N(C)C)C1)C(=O)N[C@H]1Cc2cccc(c2)-c2ccc3c(c2)c(c(-c2cccnc2[C@H](C)OC)n3CC(F)(F)F)CC(C)(C)COC(=O)[C@@H]2CCCN(N2)C1=O (system: KRAS G12C (Homo sapiens, UniProt P01116+P62937, G12C))
Data returned: > 8.00

All values here come from patent US20230233569A1.
